Could you please report measured IC50 for the items listed next?
Biological target: hNaV1.7 (Homo sapiens)
Construct: expressed in transfected cells; host or cells: HEK293
Sequence (Q15858 whole entry): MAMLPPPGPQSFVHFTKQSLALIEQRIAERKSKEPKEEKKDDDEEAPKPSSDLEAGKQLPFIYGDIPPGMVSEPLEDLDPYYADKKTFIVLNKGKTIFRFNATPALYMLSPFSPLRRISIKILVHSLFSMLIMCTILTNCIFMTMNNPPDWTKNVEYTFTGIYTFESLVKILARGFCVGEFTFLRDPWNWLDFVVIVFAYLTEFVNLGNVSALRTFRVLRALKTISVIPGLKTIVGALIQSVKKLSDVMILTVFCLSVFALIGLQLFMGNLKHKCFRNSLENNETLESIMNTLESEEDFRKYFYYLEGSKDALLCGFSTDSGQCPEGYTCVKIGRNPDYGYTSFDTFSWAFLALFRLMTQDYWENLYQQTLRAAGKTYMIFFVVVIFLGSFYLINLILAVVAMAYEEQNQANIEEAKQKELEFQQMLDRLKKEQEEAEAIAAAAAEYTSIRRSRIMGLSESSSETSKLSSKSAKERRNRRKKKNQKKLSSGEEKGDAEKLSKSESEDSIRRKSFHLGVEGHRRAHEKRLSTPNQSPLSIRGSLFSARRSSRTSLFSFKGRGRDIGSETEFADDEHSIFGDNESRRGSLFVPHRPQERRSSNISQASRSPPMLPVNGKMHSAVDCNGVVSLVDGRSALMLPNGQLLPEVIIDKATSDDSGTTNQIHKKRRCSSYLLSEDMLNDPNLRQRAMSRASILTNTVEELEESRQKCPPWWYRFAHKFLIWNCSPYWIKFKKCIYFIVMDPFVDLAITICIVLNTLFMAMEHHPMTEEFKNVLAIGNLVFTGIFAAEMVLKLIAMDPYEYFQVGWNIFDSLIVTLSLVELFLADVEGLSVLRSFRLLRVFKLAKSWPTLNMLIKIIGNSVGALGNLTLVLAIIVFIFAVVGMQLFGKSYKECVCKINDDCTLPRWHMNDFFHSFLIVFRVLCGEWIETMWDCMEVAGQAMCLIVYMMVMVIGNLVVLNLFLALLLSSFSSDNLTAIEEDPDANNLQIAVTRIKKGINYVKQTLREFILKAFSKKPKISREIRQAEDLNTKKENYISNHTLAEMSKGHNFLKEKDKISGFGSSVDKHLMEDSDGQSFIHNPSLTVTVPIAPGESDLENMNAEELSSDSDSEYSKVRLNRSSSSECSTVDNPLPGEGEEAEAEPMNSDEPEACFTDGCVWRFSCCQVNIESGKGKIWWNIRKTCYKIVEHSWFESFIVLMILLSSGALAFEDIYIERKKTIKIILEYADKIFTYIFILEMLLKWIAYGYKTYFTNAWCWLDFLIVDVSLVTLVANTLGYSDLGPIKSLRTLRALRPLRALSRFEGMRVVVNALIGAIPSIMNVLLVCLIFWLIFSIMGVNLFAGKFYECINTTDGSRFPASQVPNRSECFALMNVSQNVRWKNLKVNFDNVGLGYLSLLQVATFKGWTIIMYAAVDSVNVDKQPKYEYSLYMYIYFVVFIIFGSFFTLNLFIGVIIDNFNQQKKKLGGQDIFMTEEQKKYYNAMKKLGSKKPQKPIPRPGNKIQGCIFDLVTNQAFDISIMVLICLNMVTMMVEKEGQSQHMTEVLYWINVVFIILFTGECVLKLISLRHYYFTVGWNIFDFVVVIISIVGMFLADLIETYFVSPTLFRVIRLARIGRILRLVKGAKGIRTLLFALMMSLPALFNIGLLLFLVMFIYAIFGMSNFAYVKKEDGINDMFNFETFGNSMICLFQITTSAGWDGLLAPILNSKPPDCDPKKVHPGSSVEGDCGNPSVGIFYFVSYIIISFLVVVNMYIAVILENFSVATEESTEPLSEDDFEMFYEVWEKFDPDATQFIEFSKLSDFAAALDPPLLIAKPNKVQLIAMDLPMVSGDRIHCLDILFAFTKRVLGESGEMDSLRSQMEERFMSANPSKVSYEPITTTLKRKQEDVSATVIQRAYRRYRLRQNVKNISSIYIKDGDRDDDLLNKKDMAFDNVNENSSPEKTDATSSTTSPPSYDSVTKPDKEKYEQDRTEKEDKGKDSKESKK
Assay: QPatch NaV1.7 assay (whole-cell patch clamp, QPatch16x)
Assay type: cell-based
Conditions: holding voltage V1/2 SSI (half of channels inactivated), HEK293-hNaV1.7 cells, read-out: QP Nav1.7 SSI vhalf pIC50 (converted)
Method: The compounds of the invention were tested in a QPatch NaV1.7 assay. HEK293-hNaV1.7 cells were grown in DMEM-F12+10% FBS culture media at 37° C. At a confluency of 50-70% cells were dissociated from culture flasks & triturated to ensure unicellular cell suspension; cell density was measured & adjusted to 2-3×10^6 cells/ml. Recordings were obtained using QPatch16x. The external solution was (in mM): NaCl, 128; KCl, 5; MgCl2, 2; CaCl2, 2; Glucose, 30; HEPES, 15; pH 7.3, 305-315 mOsm. […]
Where a name gives a salt, the structure may show the parent alone.
Numbers only, in µM.

Sample records with IC50:
CCOc1ccc(F)c(-c2ccnc([C@@H]3CC[C@]4(CCCNC4=O)N3)c2)c1 [Example 106, hydrochloride]
2
CCOc1cccc(-c2cc(C)nc([C@H]3CC[C@@]4(CCN(C)C4=O)N3)c2)c1 [Example 207, hydrochloride]
6.31
CN1CC[C@@]2(CC[C@H](c3cc(-c4cc(OC(F)F)ccc4F)ccn3)N2)C1=O [Example 84, hydrochloride]
20
CCOc1ccc(F)c(-c2cc(C)nc([C@@H]3CC[C@]4(CCN(C)C4=O)N3)c2)c1 [Example 120, hydrochloride]
0.794
CCOc1ccc(Cl)c(-c2ccnc([C@H]3CC[C@@]4(CCN(C)C4=O)N3)c2)c1 [Example 181, hydrochloride]
5.01

Provide IC50 values for the following items, in order.
1. CN1CC[C@@]2(CC[C@H](c3cc(-c4ccc5c(ccn5C)c4)ccn3)N2)C1=O [Example 79, hydrochloride]
2. CN1CC[C@@]2(CC[C@H](c3cc(-c4cc5[nH]ncc5cc4F)ccn3)N2)C1=O [Example 186, hydrochloride]
3. CCOc1ccc(F)c(-c2ccnc([C@H]3CC[C@@]4(CCN(C)C4=O)N3)c2)c1 [Example 8, hydrochloride]
4. CC(C)CCn1cc(-c2ccnc([C@H]3CC[C@@]4(CCN(C)C4=O)N3)c2)cn1 [Example 170, hydrochloride]
5. CN1CC[C@@]2(CC[C@H](c3cc(-c4ccc(C(F)(F)F)cc4F)ccn3)N2)C1=O [Example 12, hydrochloride]
6. CN1CC[C@]2(CC[C@H](c3cc(-c4ccc(C(F)(F)F)cc4)ccn3)N2)C1=O [Example 55, hydrochloride]

[31.6, 158, 0.794, 25.1, 10, 20]

Provide IC50 values for the following items, in order.
1. COc1cc(C(F)(F)F)ccc1-c1cc([C@H]2CC[C@]3(CCN(C)C3=O)N2)ncc1C [Example 130, hydrochloride]
2. CCOc1ccc(F)c(-c2ccnc([C@@H]3CC[C@@]4(CCN(C)C4=O)N3)c2)c1 [Example 147, hydrochloride]
3. Cc1cc(-c2ccc(C(F)(F)F)cc2)cc([C@@H]2CC[C@@]3(CCNC3=O)N2C)n1 [Example 226, hydrochloride]

[7.94, 3.16, 12.6]
